Assay: NCI Yeast Anticancer Drug Screen. Data for the bub3 strain (AID 167)
Conditions: S. cerevisiae bub3 mutant strain, at 50.0 µM, stronger effect = higher value
Compounds without any hit were thinned out: in the full panel of roughly 79,000, 15% have a hit.
Give measured growth inhibition for each item. Keep answers brief.
Enter your answer as a number in %; do not include the unit.

response.value for `O=C1NC(=O)C(Cc2cccc(Cl)c2)C(=O)N1` (field: growth inhibition) = 0.55

response.value for O=P(Oc1ccccc1)(Oc1ccccc1)C(O)c1ccccc1 (configuration not stated) (field: growth inhibition) = -8.4

response.value for `O=C(N/N=C/c1cc(Cl)cc(Cl)c1[O-])c1ccccc1O.O=C(N/N=C/c1cc(Cl)cc(Cl)c1[O-])c1ccccc1O.[Cu+2]` (field: growth inhibition) = -12.7

response.value for `CN1CCC2(CC1)COCc1ccccc12` (field: growth inhibition) = 11.2

response.value for `CCOC(OCC)c1ccccc1.[C-]#[O+].[C-]#[O+].[C-]#[O+].[Cr]` (field: growth inhibition) = 32.7

response.value for O=C(O)C(O)c1ccc(Cl)cc1 (configuration not stated) (field: growth inhibition) = 16.1

response.value for `CCOP(=O)(OCC)SC#N` (field: growth inhibition) = -1.05

---

Give measured growth inhibition for each item. Keep answers brief.
Experiment: NCI Yeast Anticancer Drug Screen. Data for the sgs1 mgt1 strain (AID 161);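 note: 0% = growth of cultures given vehicle only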
Conditions: S. cerevisiae sgs1 mgt1 strain, at 50.0 µM, stronger effect = higher value
About 79,000 compounds went through this panel and 15% of them were active in at least one assay; those are over-represented in the sample as a whole.
Enter your answer as a number in %; do not include the unit.

response.value for `O=[As](O)(O)c1cccc(Cl)c1` (field: growth inhibition) = -13.8

response.value for `O=C(O)c1ccc(CI)cc1` (field: growth inhibition) = 6

response.value for CO/C(=N/N1CC1C(F)(F)F)c1ccncc1 (centres undefined) (field: growth inhibition) = -51.9

response.value for `CN(C)C(=O)N(CCCl)N=O` (field: growth inhibition) = 1.45

response.value for `O=C(N/N=C/c1cc(Cl)cc(Cl)c1[O-])c1ccccc1O.O=C(N/N=C/c1cc(Cl)cc(Cl)c1[O-])c1ccccc1O.[Ni+2]` (field: growth inhibition) = -14.8

response.value for `CN(C)C(=O)CCCc1ccc(N(CCCl)CCCl)cc1` (field: growth inhibition) = 5.3

response.value for `C[N+](C)(C)CC1(COC(=O)C(O)(c2ccccc2)c2ccccc2)CCCCC1` (field: growth inhibition) = -16.8

response.value for `CCOC(=O)/C(=C\c1ccc(Cl)cc1)[Se]c1ccccc1` (field: growth inhibition) = 28.9

response.value for `CN(C)C(=O)c1nnsc1NN=O` (field: growth inhibition) = -35.1

response.value for `COc1cc(C=Nc2ccc(C(=O)O)c(O)c2)ccc1N(CCCl)CCCl` (field: growth inhibition) = 65.2

response.value for `CCN(CC)[P+](C1=C(Cl)C(=O)C(Cl)=C(Cl)C1=O)(N(CC)CC)N(CC)CC` (field: growth inhibition) = -6.6

response.value for Oc1ccccc1C1NCCc2[nH]cnc21 (centres undefined) (field: growth inhibition) = 14.4

response.value for `N#CC1(c2ccccc2)CCNCC1` (field: growth inhibition) = -3.15

response.value for `Cc1nc2ccccc2c(=O)n1-c1ccccc1` (field: growth inhibition) = 0

response.value for COC(=O)C1=C(O)C(C(=O)OC)C2/C(=[N+](/[O-])O)c3c(cc([N+](=O)[O-])cc3[N+](=O)[O-])C1C2[N+](=O)[O-] (centres undefined) (field: growth inhibition) = 87.8

response.value for `C1C[N-]CC[N-]1.C1C[N-]CC[N-]1.[Zn]` (field: growth inhibition) = 99.5

response.value for `NC1=NC(N)=N1` (field: growth inhibition) = -6.2

response.value for CC1CC[Si](C)(C)CC12C(=O)NC(=O)NC2=O (centres undefined) (field: growth inhibition) = 19.6

response.value for `c1c2c(cc3c1OCO3)-c1cc3ccc4c(c3c[n+]1CC2)OCO4` (field: growth inhibition) = 0.35

response.value for CC(=O)CC(C)C(=O)O (centres undefined) (tested in a mixture with another compound) (field: growth inhibition) = -16.6

response.value for `CCCCS(=O)(=O)C(c1ccccc1)c1ccccc1` (field: growth inhibition) = 96

response.value for `Cc1ccc(Cl)c2c1CC(=[N+]=[N-])C2=O` (field: growth inhibition) = 8.7

response.value for `C1CC[N-]CC1.C1CC[N-]CC1.[Cl][Pt+2]([Cl])([Cl])[Cl]` (field: growth inhibition) = 7.8

response.value for `CN(C)c1cccc(NC2=NCCO2)c1` (field: growth inhibition) = -27.7

response.value for `c1ccc(CCN2CCCCC2)nc1` (field: growth inhibition) = -0.15

response.value for `O=c1ccc(=O)[nH][nH]1.[Zn+2]` (field: growth inhibition) = -4.8

response.value for `CCCC[S][Hg][I]` (field: growth inhibition) = 97.9

response.value for `CCCCCCCCCCCCCC(=O)O.[Pb]` (field: growth inhibition) = -5.9

response.value for `Cc1ccnc(NN=O)c1` (field: growth inhibition) = -6.75

response.value for `CN1CCN(c2cc3nsnc3c3nsnc23)CC1` (field: growth inhibition) = -15.1

response.value for CN1CCCC(C(=O)c2ccccc2)C1 (centres undefined) (field: growth inhibition) = -0.3

response.value for CC1N2C3(c4ccccc4)OC(c4ccccc4)(c4ccccc43)C12c1ccccc1 (centres undefined) (field: growth inhibition) = 4.95

response.value for CN1C(=O)c2ccccc2NC(=O)C12O[C@@H]2c1ccccc1 (some centres undefined) (field: growth inhibition) = -4.95

response.value for `CN(C)CCNC(=O)c1cc([N+](=O)[O-])cc2c1Oc1ccccc1O2` (field: growth inhibition) = -7.35

response.value for `O=NNc1ncc([N+](=O)[O-])cn1` (field: growth inhibition) = -5.9

response.value for CCOP1(=O)C=C(C)C(Cl)=C(C)C1 (centres undefined) (field: growth inhibition) = 11

response.value for `O=S(c1ccc(Cl)cc1)c1ccc(Cl)cc1` (field: growth inhibition) = 33.5

response.value for CCC12C=CCN3CCC4(C(=C(C(=O)OC)C1)Nc1ccccc14)[C@H]32 (some centres undefined) (field: growth inhibition) = 6

response.value for CCC1([N+](=O)[O-])COP(=O)(NCc2ccncc2)OC1 (centres undefined) (field: growth inhibition) = -5.95

response.value for `[C-]#[O+].[C-]#[O+].[C-]#[O+].[C-]#[O+].[Mo].c1ccc([As](CC[As](c2ccccc2)c2ccccc2)c2ccccc2)cc1` (field: growth inhibition) = -5.8

response.value for `O=c1[nH]c(=O)[nH]c(=O)[nH]1` (field: growth inhibition) = -12.9

response.value for `O=C1NC(=O)C(=Cc2ccco2)C(=O)N1` (field: growth inhibition) = -7.85

response.value for `COc1cc(/C=C(\C)[N+](=O)[O-])cc(OC)c1` (field: growth inhibition) = 34

response.value for O=C1CC=C2C3CC4N(CCC45c4ccccc4N1C25)C/C3=C\CO (centres undefined) (field: growth inhibition) = -5.3

response.value for `O=P(Oc1ccccc1)(Oc1ccccc1)Oc1c(Cl)c(Cl)c(O)c(Cl)c1Cl` (field: growth inhibition) = 38.9

response.value for `O=C(CCSCCC(=O)N/N=C/c1ccc(N(CCCl)CCCl)cc1)N/N=C\c1ccc(N(CCCl)CCCl)cc1` (field: growth inhibition) = 9.35

response.value for `O=C(Nc1c(O)[nH]c(=S)[nH]c1=O)c1ccccn1` (field: growth inhibition) = -3.75

response.value for `O=C/C=C/c1ccco1` (field: growth inhibition) = -15.2

response.value for C=C1C(=O)OC2CC3(C)OC3C3OC3C3=CC(OC3=O)C12 (centres undefined) (field: growth inhibition) = 57.1
